Tested on: MCF7
assay: Cytotoxicity against human MCF7 cells assessed as reduction in cell viability by MTT assay
Format: functional, cell-based
setup conditions: Homo sapiens, MCF7; read-out: IC50
pIC50: −log10 of the molar value.
observation type: pIC50

| compound | observation type | quantitative result |
| --- | --- | --- |
| C=CCCCCCCCCC(=O)OC[C@H](CO[C@@H]1O[C@H](CO)[C@@H](O)[C@H](O)[C@H]1O)OC(=O)CCCCCCCCC=C | pIC50 | 4.49 |
| CCCCCCCCC1CC1CCCCCCCC(=O)OC[C@H](CO[C@@H]1O[C@H](CO)[C@@H](O)[C@H](O)[C@H]1O)OC(=O)CCCCCCCC1CC1CCCCCCCC (some centres undefined) | pIC50 | 4.00 |
| C=CCCCCCCCCC(=O)OC[C@H](CO[C@@H]1O[C@H](COC(C)=O)[C@@H](OC(C)=O)[C@H](OC(C)=O)[C@H]1OC(C)=O)OC(=O)CCCCCCCCC=C | pIC50 | 4.59 |
| CCCCCCCC/C=C\CCCCCCCC(=O)OC[C@H](CO[C@@H]1O[C@H](CO)[C@@H](O)[C@H](O)[C@H]1O)OC(=O)CCCCCCC/C=C\CCCCCCCC | pIC50 | 4.75 |

* * *

assay: Cytotoxicity against human SKOV3 cells assessed as reduction in cell viability by MTT assay
Assay type: functional, cell-based, SK-OV-3
setup conditions: sk-ov-3

| compound | IC50 |
| --- | --- |
| CCCCCCCC/C=C\CCCCCCCC(=O)OC[C@H](CO[C@@H]1O[C@H](COC(C)=O)[C@@H](OC(C)=O)[C@H](OC(C)=O)[C@H]1OC(C)=O)OC(=O)CCCCCCC/C=C\CCCCCCCC | Not Active |
| CCCCCCCCCCCC(=O)OC[C@H](CO[C@@H]1O[C@H](COC(C)=O)[C@@H](OC(C)=O)[C@H](OC(C)=O)[C@H]1OC(C)=O)OC(=O)CCCCCCCCCCC | Not Active |
| CCCCCCCCC1CC1CCCCCCCC(=O)OC[C@H](CO[C@@H]1O[C@H](COC(C)=O)[C@@H](OC(C)=O)[C@H](OC(C)=O)[C@H]1OC(C)=O)OC(=O)CCCCCCCC1CC1CCCCCCCC (some centres undefined) | Not Active |
| CCCCCCCC/C=C\CCCCCCCC(=O)O[C@H](COC(=O)CCCCCCCC1CC1CCCCCCCC)CO[C@@H]1O[C@H](COC(C)=O)[C@@H](OC(C)=O)[C@H](OC(C)=O)[C@H]1OC(C)=O (some centres undefined) | Not Active |

* * *

assay: Cytotoxicity against human DU145 cells assessed as reduction in cell viability by MTT assay
Assay type: functional, cell-based, DU-145
setup conditions: Homo sapiens, DU-145; read-out: IC50
pIC50: −log10 of the molar value.
observation type: pIC50

| molecule | quantitative result |
| --- | --- |
| CCCCCCCC/C=C\CCCCCCCC(=O)OC[C@H](CO[C@@H]1O[C@H](CO)[C@@H](O)[C@H](O)[C@H]1O)OC(=O)CCCCCCC/C=C\CCCCCCCC | 4.70 |
| CCCCCCCC/C=C\CCCCCCCC(=O)O[C@H](COC(=O)CCCCCCCC1CC1CCCCCCCC)CO[C@@H]1O[C@H](COC(C)=O)[C@@H](OC(C)=O)[C@H](OC(C)=O)[C@H]1OC(C)=O (stereo partly drawn) | 3.73 |
| CCCCCCCCCCCC(=O)OC[C@H](CO[C@@H]1O[C@H](CO)[C@@H](O)[C@H](O)[C@H]1O)OC(=O)CCCCCCCCCCC | 4.26 |
| C=CCCCCCCCCC(=O)OC[C@H](CO[C@@H]1O[C@H](COC(C)=O)[C@@H](OC(C)=O)[C@H](OC(C)=O)[C@H]1OC(C)=O)OC(=O)CCCCCCCCC=C | 4.48 |
| CCCCCCCC/C=C\CCCCCCCC(=O)O[C@H](COC(=O)CCCCCCCC1CC1CCCCCCCC)CO[C@@H]1O[C@H](CO)[C@@H](O)[C@H](O)[C@H]1O (stereo partly drawn) | 4.41 |
| COc1cccc2c1C(=O)c1c(O)c3c(c(O)c1C2=O)C[C@@](O)(C(=O)CO)C[C@@H]3O[C@H]1C[C@H](N)[C@H](O)[C@H](C)O1 | 6.15 |
| CCCCCCCCC1CC1CCCCCCCC(=O)OC[C@H](CO[C@@H]1O[C@H](CO)[C@@H](O)[C@H](O)[C@H]1O)OC(=O)CCCCCCCC1CC1CCCCCCCC (stereo partly drawn) | 3.68 |
| C=CCCCCCCCCC(=O)OC[C@H](CO[C@@H]1O[C@H](CO)[C@@H](O)[C@H](O)[C@H]1O)OC(=O)CCCCCCCCC=C | 3.92 |
